Every entry's value here was drawn from PubChem BioAssay (NCI).

System: T-47D breast
test.description: NCI tumour cell line growth inhibition, 48 h
Please provide measured TGI for the entries that follow.

Field: example entries. Status: answers known.
- molecule: "c1ccc(Cc2cccc3cc(-c4ccc(-c5ccccc5)cc4)[nH]c23)cc1"
  TGI: "> 100 µM"
- molecule: "CC1C2Cc3ccc(O)cc3C1(C)CCN2C (stereo not drawn)"
  TGI: "> 100 µM"

[ask] Observed TGI on T-47D breast for N#CC12COC3(CCCCC3C1(C#N)C#N)OC2=N (stereo not drawn) , please.
[reply] 26.7 µM

---

Please provide measured TGI for the entries that follow.
Tested on: SN12C renal
test.description: NCI tumour cell line growth inhibition, 48 h

- compound: "OC1CN(OC/C=C/c2ccccc2)CC(O)C1O (stereo not drawn)"
  target.under.test: "SN12C renal"
  property.measured: "TGI"
  result: "> 100 µM"
- compound: "CSCCC(NC(=O)C(Cc1ccccc1)NC(=O)CNC(=O)CNC(=O)C(N)Cc1ccc(O)cc1)C(=O)O (stereo not drawn)"
  target.under.test: "SN12C renal"
  property.measured: "TGI"
  result: "> 100 µM"
- compound: "COc1ccc(/C=C/c2cc(OC)c(O[Si](C)(C)C(C)(C)C)c(OC)c2)cc1"
  target.under.test: "SN12C renal"
  property.measured: "TGI"
  result: "> 100 µM"
- compound: "C=C1C(=O)OC2CCCCC3OC3C12 (stereo not drawn)"
  target.under.test: "SN12C renal"
  property.measured: "TGI"
  result: "21.3 µM"
- compound: "OC(c1ccccc1)(c1ccccc1)c1ccccn1"
  target.under.test: "SN12C renal"
  property.measured: "TGI"
  result: "> 100 µM"
- compound: "O=C(N[C@H](c1ccc(Cl)c(Cl)c1)C1CNC1)c1ccc2cnccc2c1"
  target.under.test: "SN12C renal"
  property.measured: "TGI"
  result: "15.7 µM"

Dear colleague, could you send me TGI for each of the items below? Thanks.
1. CCOC(=O)C1=C(Nc2ccccc2)OC/C1=N\NC(=O)Cc1ccccc1
2. Clc1ccc(-c2nc3c(-c4ccc(Cl)cc4)nc(-c4ccccc4)cn3c2-c2ccc(Cl)cc2)cc1
3. Cc1ccc(-n2c3c(c4c(CN5CCCCC5)c(O)ccc42)CCc2ccccc2C3=O)cc1
4. CN(C)C(=S)Nc1nnc(NC23CC4CC(CC(C4)C2)C3)s1
5. COc1c(OC(C)=O)cc2c(OC(C)=O)c1CC(C)CC(OC)C(O)C(C)/C=C(\C)C(OC(N)=O)C(OC)/C=C\C=C(/C)C(=O)N2 (stereo not drawn)
6. CS(C)(=O)=N/C=C\C(=O)C(Cl)(Cl)Cl
7. CCOC(=O)/C(C(=S)NC)=C(/N)N1CCCC1

[reply]
["> 50 µM", "> 50 µM", "> 100 µM", "38.1 µM", "> 100 µM", "> 100 µM", "> 100 µM"]

---

Please provide measured TGI for the entries that follow.
System: UO-31 renal
test.description: NCI tumour cell line growth inhibition, 48 h

Field: example entries. Status: answers known.
- query.smiles: "NS(=O)(=O)c1nnc(NC(=O)CCC(=O)O)s1"
  result: "> 100 µM"
- query.smiles: "CN(C)c1cccc(-c2cc(=O)c3ccccc3[nH]2)c1"
  result: "> 100 µM"

Let us examine a further case.
[ask] Reported TGI, molecule `O=C1CCCCC/C=C2/CC[C@H](Sc3ccccc3)[C@@H]12` : ____
[reply] > 100 µM
